Origin of values: patent US20040018971A1

Below: a set of entries, each annotated with reported relative binding ratio (IC50 of standard peptide / IC50 of test peptide).
target: T1, HLA-A*0301 (human); test: inhibition of 125I-labelled standard peptide 941.12 binding to purified HLA-A*0301, gel filtration
T1 construct: also called HLA-A3
Dear colleague, please return just the value in ratio, with no unit written.

The following binders have reported results that may help.
- Binder: "PLTCSPQPEY [HER2/neu peptide, position 1130, 10 amino acids]"
  Readout value: 0.0002
- Binder: "QLVTQLMPY [HER2/neu peptide, position 795, 9 amino acids]"
  Readout value: 0.011
- Binder: "PTHDPSPLQR (H was used here) [HER2/neu peptide, position 1102, 10 amino acids]"
  Readout value: 0.0003
- Binder: "QALLHTANR [HER2/neu peptide, position 491, 9 amino acids]"
  Readout value: 0.0046
- Binder: "QVCTGTDMK [HER2/neu peptide, position 24, 9 amino acids]"
  Readout value: 0.0007

Next:
INPUT: // query relative binding ratio (IC50 of standard peptide / IC50 of test peptide) value for entry PSGVKPDLSY [HER2/neu peptide, position 601, 10 amino acids]
OUTPUT: 0.0003
